# targetOfAssay: Lysine-specific histone demethylase 1A (Homo sapiens)
# assay: qHTS Assay for Inhibitors of Human Jumonji Domain Containing 2E (JMJD2E): Counterscreen with LSD1
# conditionInfo: Amplex Red/HRP fluorescence; series mostly up to 57.1 µM
Records with an inconclusive call do not appear. The source made the active and inactive calls. The call rests on the fitted dose curve; in most records, active means well fitted curve in the direction sought with a large enough effect; inconclusive means small, poorly fitted or top-dose-only effect, or another doubt; inactive means no such curve, though single readings can be large or run the other way.
metric: Potency

INSERT INTO measurements (entrysmiles, reported) VALUES
  ('O=C(O)c1ccnc2c(O)cccc12', 'inactive'),
  ('CN(C)CCCNC(=O)c1ccc(-c2cnc3c(O)ccc(C(=O)O)c3c2)cc1', 'inactive'),
  ('CN1CCN(C(=O)c2ccc(-c3cnc4c(O)ccc(C(=O)O)c4c3)cc2)CC1', 'inactive'),
  ('O=C(O)c1ccc(O)c2ncc(-c3cccc(N4CCOCC4)c3)cc12', 'inactive'),
  ('CN(C)CCCN1CCCN(C(=O)c2cccc(-c3cc(O)c4ncccc4c3)c2)C1', '10.8 µM (active)'),
  ('NC(=O)c1ccnc2c(O)cccc12', 'inactive');

Reference source for all entries: PubChem BioAssay AID687009
